The values you see were collected from patent US9586986B2.

# Tested on: BJ
# test_method_notes: Cytostatic/cytotoxic MTT assay, BJ fibroblasts
# Assay type: cell-based
# experimental_parameters: Homo sapiens, non-malignant fibroblasts, 72 h, read-out: MTT, IC50 BJ
Please go through the items and note down their pIC50.
Give bare numbers, as −log10 of the molar value.

| molecule | tested_on | pIC50 |
| --- | --- | --- |
| CSc1ncnc2c1c(-c1cccs1)cn2[C@@H]1O[C@H](CO)[C@@H](O)[C@H]1O | BJ | 4.01 |
| CNc1ncnc2c1c(-c1ccoc1)cn2[C@@H]1O[C@H](CO)[C@@H](O)[C@H]1O | BJ | 4.02 |
| Cc1ncnc2c1c(-c1ccsc1)cn2[C@@H]1O[C@H](CO)[C@@H](O)[C@H]1O | BJ | 4.01 |
| CNc1ncnc2c1c(-c1ccco1)cn2[C@@H]1O[C@H](CO)[C@@H](O)[C@H]1O | BJ | 5.30 |
| COc1ncnc2c1c(I)cn2[C@@H]1O[C@H](CO)[C@@H](O)[C@H]1O [Compound 1h, reference compound] | BJ | 4.04 |

Below are 4 molecules. Give each one its pIC50.
1. C#Cc1cn([C@@H]2O[C@H](CO)[C@@H](O)[C@H]2O)c2ncnc(N(C)C)c12
2. CSc1ncnc2c1c(-c1ccoc1)cn2[C@@H]1O[C@H](CO)[C@@H](O)[C@H]1O
3. C#Cc1cn([C@@H]2O[C@H](CO)[C@@H](O)[C@H]2O)c2ncnc(OC)c12
4. CSc1ncnc2c1c(-c1cc3ccccc3o1)cn2[C@@H]1O[C@H](CO)[C@@H](O)[C@H]1O

## Result
1: 6.39; 2: 4.01; 3: 4.01; 4: 4.17

###

Please go through the items and note down their IC50.
# System: K562
# test_method_notes: Cytostatic/cytotoxic MTT assay, K562
# Type: cell-based
# experimental_parameters: Homo sapiens, K562; 72 h incubation; read-out: MTT, IC50 K562

# annotated cases, reported IC50 shown
| compound | value_reported |
| --- | --- |
| CNc1ncnc2c1ccn2[C@@H]1O[C@H](CO)[C@@H](O)[C@H]1O [RC3, reference compound] | > 20000 nM |
| CNc1ncnc2c1c(-c1ccsc1)cn2[C@@H]1O[C@H](CO)[C@@H](O)[C@H]1O [Compound 3d] | > 20000 nM |

Provide each entry's IC50 from the list below.
1. COc1ncnc2c1ccn2[C@@H]1O[C@H](CO)[C@@H](O)[C@H]1O [RC1, reference compound]
2. Cc1ncnc2c1c(-c1cc3ccccc3o1)cn2[C@@H]1O[C@H](CO)[C@@H](O)[C@H]1O [Compound 5f]
3. CNc1ncnc2c1c(-c1ccco1)cn2[C@@H]1O[C@H](CO)[C@@H](O)[C@H]1O [Compound 3a]
4. CSc1ncnc2c1c(-c1ccco1)cn2[C@@H]1O[C@H](CO)[C@@H](O)[C@H]1O [Compound 2a]
5. COc1ncnc2c1c(-c1cccs1)cn2[C@@H]1O[C@H](CO)[C@@H](O)[C@H]1O [Compound 1c]
6. CN(C)c1ncnc2c1c(-c1ccsc1)cn2[C@@H]1O[C@H](CO)[C@@H](O)[C@H]1O [Compound 4d]

## Result
1: > 20000 nM; 2: 19500 nM; 3: 220 nM; 4: 40 nM; 5: 70 nM; 6: 530 nM

Entry CN(C)c1ncnc2c1c(-c1ccoc1)cn2[C@@H]1O[C@H](CO)[C@@H](O)[C@H]1O [Compound 4b] , IC50 reported as 1540 nM
